- TGT: T1, RSV F B S443P (RSV B)
- T1 construct: whole, on cells; also called mutant S443P
- RUN DESCRIPTION: FACS, % binding to RSV F B variants
OBSERVABLE: % binding (%)
Kindly answer with a numeric value in %, unit omitted.

Here are 2 binders together with their reported answers.
- MPK190-v1.3-rIgG1m17,1-LS (antibody, V domains shown) VH: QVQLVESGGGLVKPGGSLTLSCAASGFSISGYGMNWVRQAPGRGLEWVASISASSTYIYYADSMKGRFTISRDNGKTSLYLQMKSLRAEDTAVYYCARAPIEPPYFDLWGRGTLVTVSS VL: QSVLTQPPSVSGAPGQRVTISCTGSSSNIGAGYDVHWYQHLPGKAPKVLIYGNTNRPSVVPDRFSGSNSGASASLAISGLQAEDEADYFCQSYDRRLSGPIFGGGTKLTVLG: 66.7
- MPK176-v1.3 (antibody, V domains shown) VH: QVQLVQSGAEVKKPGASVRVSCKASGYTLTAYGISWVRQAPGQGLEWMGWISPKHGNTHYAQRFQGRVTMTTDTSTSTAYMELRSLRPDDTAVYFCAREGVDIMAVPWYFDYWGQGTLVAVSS VL: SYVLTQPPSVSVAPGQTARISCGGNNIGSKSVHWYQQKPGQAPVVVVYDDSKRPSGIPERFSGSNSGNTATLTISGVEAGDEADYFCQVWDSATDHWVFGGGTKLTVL: 33.8

--- query ---
Read off the recorded % binding for MPK65-v2-v3.1 (antibody, V domains shown) VH: QVPLVQSGAEVKKPGESLKISCKGSGYSFISYWIGWVRQMPGKGLEWMGVIYPFDADTKYSPSFQGHVTISADKSSNTAYVQWSSLKASDTAMYYCARFTFGIAVVTDDVSGEGQAFEIWGQGTMVTVSS VL: EIVMMQSPATLSVSPGERATLSCRASQSVAGNLAWYQQRPGQAPRLLIYGASTRATGVPARFSGSGSETEFTLTISSLQSEDFAVYYCHQYSNWPQAFGQGTRLDIK 30.6

Source of measurements: patent US20260028391A1
